Measured values drawn from the supplement of paper PMC6755084 for this set.

B1: minF1; a variant is named by its letters at N, in order (parent)
chain: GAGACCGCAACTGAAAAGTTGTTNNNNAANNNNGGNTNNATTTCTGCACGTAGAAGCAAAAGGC

variants of: B1; experiment: fraction ligated after 30 min (ligated reads / total reads); higher = more ligase activity; details: with F1*subA RNA substrate (template-directed ligation), 42 °C
metricName: fraction ligated
Give the figure by itself; no unit, no explanation.

Below: 4 variants and their reported fraction ligated.
# mutantLabel, fraction ligated
data = [
    ("TCAGAATGTGA", 0.00302),
    ("CAAAGGTGTGA T23A A29T", 0.00303),
    ("ACGATGGTGTA", 0.00204),
    ("AAAAGGTGTGA A29T", 0.00306),
]

Query :: Respond only with fraction ligated recorded for ATCAAATTGTA A28G
Result :: 0.00076

Query :: Respond only with fraction ligated recorded for TCAAGATGTGA A29T
Result :: 0.00235

Query :: Respond only with fraction ligated recorded for AGAAGATGTGA T23C A29T
Result :: 0.00701
